# test_parameters: buffer; pH 7.4; 200.0 µM
Would you mind telling me the reported solubility kinetic of each entry?
Reply with just the number (in µg/mL).

For the molecule O=C(CCSc1ccccc1)Nc1ccccc1Br , what solubility kinetic is on record? 6.6

For the molecule Cc1ccc(NC(=O)CN2C(=O)N/C(=C\c3cccnc3)C2=O)cc1 , what solubility kinetic is on record? 5.2

For the molecule O=c1[nH]cccc1-c1nc2ccccc2n1Cc1ccccc1F , what solubility kinetic is on record? 3.9

For the molecule CSc1cccc(NC(=S)Nc2cc(C)ccc2C)c1 , what solubility kinetic is on record? 22.5

For the molecule COc1ccc(C(=O)O)cc1NCc1cccnc1 , what solubility kinetic is on record? 36.8

For the molecule CC(C)c1ccc(N2C(=O)CC(Sc3ncccn3)C2=O)cc1 (configuration not stated) , what solubility kinetic is on record? 4

---

# test_parameters: buffer; pH 7.4; 200.0 µM
Would you mind telling me the reported solubility kinetic of each entry?

For the molecule CC(NC(=S)NC1CCCCC1)c1ccccc1 (stereo not drawn) , what solubility kinetic is on record? 36.1 µg/mL

For the molecule O=C(NCc1ccc(F)cc1)c1cccnc1C(=O)O , what solubility kinetic is on record? > 41.1 µg/mL

For the molecule Cc1ccc(OCC(=O)N(C)C2CCCCC2)c([N+](=O)[O-])n1 , what solubility kinetic is on record? > 46.1 µg/mL

For the molecule CC(OC(=O)c1cnc2ccccc2n1)c1ccccc1Cl (stereo not drawn) , what solubility kinetic is on record? 14.8 µg/mL

For the molecule O=C(NCc1ccco1)c1ccc(Cl)nc1 , what solubility kinetic is on record? > 35.5 µg/mL

For the molecule COc1ccc(NC(=O)CN(C)C(=O)c2ccccc2OC)cc1 , what solubility kinetic is on record? > 49.3 µg/mL

For the molecule CC1CCCN(S(=O)(=O)c2cccc(C(=O)NCC3CCCO3)c2)C1 (stereo not drawn) , what solubility kinetic is on record? > 55 µg/mL

For the molecule CC1CCN(C(=O)c2ccc(S(=O)(=O)N3CCOCC3)cc2)CC1 , what solubility kinetic is on record? 43.2 µg/mL

For the molecule COc1cccc(/C=C/C(=O)c2cccc([N+](=O)[O-])c2)c1 , what solubility kinetic is on record? 2.4 µg/mL

For the molecule CC(=O)N(CCCN(C)C)c1nc2ccc(C)cc2s1.Cl , what solubility kinetic is on record? > 49.2 µg/mL

For the molecule COc1ccccc1NS(=O)(=O)c1ccc(C(=O)NCc2ccc(S(N)(=O)=O)cc2)cc1 , what solubility kinetic is on record? 20.3 µg/mL

For the molecule Cc1ccccc1NC(=S)N1CCC(NC(=O)c2ccco2)CC1 , what solubility kinetic is on record? 47.1 µg/mL

For the molecule CN(C)CCOC(=O)c1ccc2[nH]c3c(c2c1)CSCC3.Cl , what solubility kinetic is on record? 49.2 µg/mL

For the molecule Cn1c(N)c(C(=O)COC(=O)c2ccc(C(F)(F)F)cc2)c(=O)n(C)c1=O , what solubility kinetic is on record? 15.2 µg/mL

For the molecule O=S(=O)(NC1CCCCC1N1CCCCC1)c1ccccc1 (stereo not drawn) , what solubility kinetic is on record? > 48.4 µg/mL

For the molecule CCc1ccc2nc(N(CCN(C)C)C(=O)/C=C/c3cccs3)sc2c1.Cl , what solubility kinetic is on record? < 0.3 µg/mL

For the molecule COC(=O)C1CCN(C(=O)c2ccc3nccnc3c2)CC1 , what solubility kinetic is on record? > 44.9 µg/mL

For the molecule O=C(CSc1nc2sc3c(c2c(=O)[nH]1)CCC3)NCCO , what solubility kinetic is on record? > 48.8 µg/mL

For the molecule COc1cccc(NC(=O)c2ccc3nsnc3c2)c1 , what solubility kinetic is on record? 24.5 µg/mL

For the molecule Cc1ccc(C(=O)NCC(=O)NC23CC4CC(CC(C4)C2)C3)cc1 , what solubility kinetic is on record? 4.2 µg/mL

For the molecule Cc1ccccc1C(=O)c1c[nH]c(C(=O)N=CN(C)C)c1 , what solubility kinetic is on record? > 42.5 µg/mL

For the molecule CCC1(C)Cc2ccccc2-c2nc(SC)[nH]c(=O)c21 (stereo not drawn) , what solubility kinetic is on record? < 0.3 µg/mL

For the molecule Cc1ccc(OCC(=O)NC(C)c2ccccc2)c([N+](=O)[O-])n1 (stereo not drawn) , what solubility kinetic is on record? 47.1 µg/mL

For the molecule CC1Cn2c(nc3sc4c(c3c2=O)CC(C)(C)OC4)N1CCO (stereo not drawn) , what solubility kinetic is on record? > 50.3 µg/mL

For the molecule O=C(CCC(=O)c1cccs1)NCc1cccnc1 , what solubility kinetic is on record? > 41.2 µg/mL

For the molecule Cc1ccc(-c2cc(C(=O)NCC(c3ccccc3)N(C)C)c3ccccc3n2)o1 (stereo not drawn) , what solubility kinetic is on record? 31.1 µg/mL

For the molecule O=c1cc(C(F)(F)F)nc(SCc2cccc3ccccc23)[nH]1 , what solubility kinetic is on record? 7.5 µg/mL

For the molecule O=C(NCCCNC(=O)c1ccco1)c1ccc(Cl)c(Cl)c1 , what solubility kinetic is on record? 44.2 µg/mL

For the molecule Cc1ccnc(N2CCC(C(=O)Nc3ccc4c(c3)OCCO4)CC2)n1 , what solubility kinetic is on record? 13.6 µg/mL

For the molecule O=C(COC(=O)C1=COCCO1)Nc1ccc(F)c(F)c1 , what solubility kinetic is on record? 4.6 µg/mL

For the molecule O=C(CCCC(=O)c1ccccc1)Nc1ccc(O)cc1 , what solubility kinetic is on record? > 42.5 µg/mL

For the molecule C=CCNC(=O)c1cc2sccc2n1C , what solubility kinetic is on record? > 33 µg/mL

For the molecule Cc1sc2nc(COC(=O)c3c(F)cccc3F)[nH]c(=O)c2c1C , what solubility kinetic is on record? 4.2 µg/mL

For the molecule O=C(Nc1cccc(Cl)c1)OCCOc1ccccc1 , what solubility kinetic is on record? < 0.6 µg/mL

For the molecule CN(C)c1ccc(N2C(=O)CC(c3ccccc3)CC2=O)cc1 , what solubility kinetic is on record? 12.3 µg/mL

For the molecule CCOc1ccccc1NC(=S)NC(=O)C1CCCCC1 , what solubility kinetic is on record? 0.6 µg/mL

For the molecule CC(O/N=C(\N)c1ccccc1)C(=O)Nc1cccc(C(F)(F)F)c1 (stereo not drawn) , what solubility kinetic is on record? > 52.7 µg/mL

For the molecule CC(=O)c1cccc(NC(=S)NCc2ccco2)c1 , what solubility kinetic is on record? 33.7 µg/mL

For the molecule CC(C)c1ccc(S(=O)(=O)N2CCN(C(=O)C3=COCCO3)CC2)cc1 , what solubility kinetic is on record? 18.3 µg/mL

For the molecule O=C1CC(=O)N(c2cccc(F)c2)C(=O)N1 , what solubility kinetic is on record? > 33.3 µg/mL

For the molecule CCCCN(C)C1CCN(C(=S)Nc2cccc(OC)c2)CC1 , what solubility kinetic is on record? > 50.3 µg/mL

For the molecule Cc1cccc(C(=O)NCCCNC(=O)c2ccc(C)nc2)c1 , what solubility kinetic is on record? 44.1 µg/mL

For the molecule O=C(c1cc2ccccc2o1)N1CCN(c2ncccn2)CC1 , what solubility kinetic is on record? > 46.3 µg/mL

For the molecule CC1(C)Cc2c(C#N)c(NCCO)nc(-c3ccco3)c2CO1 , what solubility kinetic is on record? 37.4 µg/mL

For the molecule O=C(CN1C(=O)NC(Cc2c[nH]c3ccccc23)C1=O)NC1CC1 (stereo not drawn) , what solubility kinetic is on record? > 49 µg/mL

For the molecule COc1ccc2nc(C(F)(F)Cl)c(C#N)c(N)c2c1 , what solubility kinetic is on record? 3.8 µg/mL

For the molecule Cc1ccccc1Nc1c(C)c(C)nc2ncnn12 , what solubility kinetic is on record? > 38 µg/mL

For the molecule Cc1cccc(N2C(=O)CC(Sc3nccc(C)n3)C2=O)c1 (stereo not drawn) , what solubility kinetic is on record? > 47 µg/mL

---

# test_parameters: buffer; pH 7.4; 200.0 µM
Returns one of t or f; t when solubility kinetic is >= 6 µg/mL.

Does the compound Cc1ccc2c(c1)C(=O)C(=O)N2CCCOc1ccccc1C have recorded solubility kinetic that is 6 µg/mL or more? f

Does the compound CC(=O)Nc1ccc(S(=O)(=O)N(C)CC(=O)NC2CCCCCCC2)cc1 have recorded solubility kinetic that is 6 µg/mL or more? t

Does the compound O=C(NCc1ccncc1)c1cc2ccccc2nc1Cl have recorded solubility kinetic that is 6 µg/mL or more? t

Does the compound CC(=O)C(Cc1ccccc1)NC(=O)COC(=O)c1cccc(C)c1[N+](=O)[O-] (centres undefined) have recorded solubility kinetic that is 6 µg/mL or more? t

Does the compound S=C(NCc1ccccc1)N1CCc2ccccc2C1 have recorded solubility kinetic that is 6 µg/mL or more? f

Does the compound Cc1ccccc1C(=O)Nc1c(C)[nH]c(=O)[nH]c1=O have recorded solubility kinetic that is 6 µg/mL or more? t

Does the compound CCOC(=O)c1ccc(S(=O)(=O)N2CCN(C/C=C/c3ccccc3)CC2)cc1 have recorded solubility kinetic that is 6 µg/mL or more? f

Does the compound COc1ccc(N2C(=O)CCC2(C(N)=O)c2ccccc2)cc1 (centres undefined) have recorded solubility kinetic that is 6 µg/mL or more? t

Does the compound O=C(CC(=O)Nc1ccc(F)cc1)Nc1ccc(F)cc1 have recorded solubility kinetic that is 6 µg/mL or more? f

Does the compound C/C(=N\O)c1c(O)cc(-c2ccccc2)n(-c2ccccc2)c1=O have recorded solubility kinetic that is 6 µg/mL or more? t

Does the compound COc1cccc(CNC(=O)N[C@@H](C)C(=O)O)c1 have recorded solubility kinetic that is 6 µg/mL or more? t

Does the compound Cn1cc(-c2ccccc2C(=O)O)c(=O)c2cc(Cl)ccc21 have recorded solubility kinetic that is 6 µg/mL or more? t

Does the compound Cc1ccc(C(=O)NC(=S)N(C)C2CCCCC2)cc1 have recorded solubility kinetic that is 6 µg/mL or more? t

Does the compound Cc1ccc(Nc2nc(N)c(C#N)c(CC#N)c2C#N)cc1 have recorded solubility kinetic that is 6 µg/mL or more? f

Does the compound COc1ccc(OCc2cc(=O)[nH]c3ccccc23)cc1 have recorded solubility kinetic that is 6 µg/mL or more? f

Does the compound Cc1c(C)c(C)c(CN2CCSCC2)c(C)c1C have recorded solubility kinetic that is 6 µg/mL or more? f

Does the compound O=C(NCC(=O)N1CCN(c2ccccc2)CC1)c1ccccc1 have recorded solubility kinetic that is 6 µg/mL or more? t

Does the compound Cl.O=C(c1cc(-c2cccc3ccccc23)nc2ccccc12)N1CCN(CCO)CC1 have recorded solubility kinetic that is 6 µg/mL or more? t

Does the compound O=C(CN1C(=O)COc2ccccc21)N1CCOCC1 have recorded solubility kinetic that is 6 µg/mL or more? t

Does the compound O=c1[nH]c2ccccc2nc1C(F)(F)F have recorded solubility kinetic that is 6 µg/mL or more? t

Does the compound O=C1CC(Cc2ccccc2)C(=O)N1c1ncccn1 (centres undefined) have recorded solubility kinetic that is 6 µg/mL or more? t

Does the compound COc1cccc(CN(C)CC2CCCN(CCc3ccc(Cl)cc3)C2)c1OC (centres undefined) have recorded solubility kinetic that is 6 µg/mL or more? t

Does the compound O=C(Nc1ccc(-n2cccc2)cc1)C1CC1 have recorded solubility kinetic that is 6 µg/mL or more? t

Does the compound NC(=O)C1CCCCc2c1[nH]c1ccc(Cl)cc21 (centres undefined) have recorded solubility kinetic that is 6 µg/mL or more? t
